Assay: Metabolism of isoBAs in HepG2 cells (LC-MS)
Format: in vitro ADME, human
Details: 4 h
Experimental: The protocol has been published in detail previously. Briefly, internal standards were added to cells in 12-well plates and cells were lysed in methanol. The debris was pelleted, the supernatant dried and dissolved in running buffer. BAs were separated by HPLC using a C18 reversed phase or pentafluorophenyl column prior to quantification by mass spectrometry. […] Fig. 2. […] BAs were measured on C-18 column by LC/MS. […]
REPORTED_PROPERTY: re-epimerization (conversion) into the 3α-stereoisomer

# CHEMICAL_STRUCTURE, OBS_VALUE
data = [
    ("C[C@H](CCC(=O)O)[C@H]1CC[C@H]2[C@@H]3[C@H](O)C[C@@H]4C[C@@H](O)CC[C@]4(C)[C@H]3CC[C@]12C", "observed"),
    ("C[C@H](CCC(=O)O)[C@H]1CC[C@H]2[C@@H]3[C@@H](O)C[C@@H]4C[C@@H](O)CC[C@]4(C)[C@H]3CC[C@]12C", "observed"),
]
